# Substrate: Nc1ncnc2c1ncn2[C@@H]1O[C@H](COP(=O)(O)OP(=O)(O)OP(=O)(O)O)[C@@H](O)[C@H]1O
# assay-notes: phosphate release, BIOMOL Green
# Format: biochemical, Homo sapiens
# measurement-setup: 50 mM HEPES-KOH pH 7.5, 100 mM NaCl, 5 mM MgCl2, 37 °C
observation-type: Km (µM)
Answers are plain numbers, in µM.

Some entries whose results are on file:
- protein: "histidine-tagged human MLH1 NTD (Homo sapiens) (protein) MSFVAGVIRRLDETVVNRIAAGEVIQRPANAIKEMIENCLDAKSTSIQVIVKEGGLKLIQIQDNGTGIRKEDLDIVCERFTTSKLQSFEDLASISTYGFRGEALASISHVAHVTITTKTADGKCAYRASYSDGKLKAPPKPCAGNQGTQITVEDLFYNIATRRKALKNPSEEYGKILEVVGRYSVHNAGISFSVKKQGETVADVRTLPNASTVDNIRSIFGNAVSRELIEIGCEDKTLAFKMNGYISNANYSVKKCIFLLFINHRLVESTSLRKAIETVYAAYLPKNTHPFLYLSLEISPQNVDVNVHPTKHEVHFLHEESILERVQQHIESKLLG"
  recorded-number: 790
- protein: "ProS2-fused human PMS2 NTD (Homo sapiens; K340E) (protein) MERAESSSTEPAKAIKPIDRKSVHQICSGQVVLSLSTAVKELVENSLDAGATNIDLKLKDYGVDLIEVSDNGCGVEEENFEGLTLKHHTSKIQEFADLTQVETFGFRGEALSSLCALSDVTISTCHASAKVGTRLMFDHNGKIIQKTPYPRPRGTTVSVQQLFSTLPVRHKEFQRNIKKEYAKMVQVLHAYCIISAGIRVSCTNQLGQGKRQPVVCTGGSPSIKENIGSVFGQKQLQSLIPFVQLPPSDSVCEEYGLSCSDALHNLFYISGFISQCTHGVGRSSTDRQFFFINRRPCDPAKVCRLVNEVYHMYNRHQYPFVVLNISVDSECVDINVTPDERQILLQEEKLLLAVLKTSLIGMFDS"
  recorded-number: 80

Here's the next entry for you.
Prompt line: I have this protein here, histidine-tagged human MLH1 NTD (Homo sapiens; K311E) (protein) MSFVAGVIRRLDETVVNRIAAGEVIQRPANAIKEMIENCLDAKSTSIQVIVKEGGLKLIQIQDNGTGIRKEDLDIVCERFTTSKLQSFEDLASISTYGFRGEALASISHVAHVTITTKTADGKCAYRASYSDGKLKAPPKPCAGNQGTQITVEDLFYNIATRRKALKNPSEEYGKILEVVGRYSVHNAGISFSVKKQGETVADVRTLPNASTVDNIRSIFGNAVSRELIEIGCEDKTLAFKMNGYISNANYSVKKCIFLLFINHRLVESTSLRKAIETVYAAYLPKNTHPFLYLSLEISPQNVDVNVHPTEHEVHFLHEESILERVQQHIESKLLG , and I need its recorded Km.
Response line: 750

Measured values drawn from paper doi:10.1101/2021.07.09.451751v1 for this set.
